Origin of measurements: ChEMBL document CHEMBL1201861

System: SNU-16;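 further: growth inhibition of human SNU-16 cells, determined with a cell viability readout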
ASSAY_INFO: cells
Type: functional, cell-based
EXPERIMENTAL_CONTEXT: Homo sapiens
Description: SANGER: Inhibition of human NCI-SNU-16 cell growth in a cell viability assay.
Entries and their measured IC50 follow.

Data request: Quick check: IC50 of Cn1cncc1[C@@](N)(c1ccc(Cl)cc1)c1ccc2c(c1)c(-c1cccc(Cl)c1)cc(=O)n2C [TIPIFARNIB] ?
Data returned: > 16 µM

Data request: Suppose we examine the compound CCc1nc(N)nc(N)c1-c1ccc(Cl)cc1 [PYRIMETHAMINE] ; what IC50 value has been reported?
Data returned: > 20 µM

Data request: Quick one: IC50 of CN1CCN(CCOc2cc(OC3CCOCC3)c3c(Nc4c(Cl)ccc5c4OCO5)ncnc3c2)CC1 [SARACATINIB] ?
Data returned: > 2 µM

Data request: Item Cc1cc(Nc2cc(N3CCN(C)CC3)nc(Sc3ccc(NC(=O)C4CC4)cc3)n2)n[nH]1 [TOZASERTIB] has what recorded IC50?
Data returned: 0.636 µM

Data request: Recorded IC50 of Cc1ccc(Nc2nccc(N(C)c3ccc4c(C)n(C)nc4c3)n2)cc1S(N)(=O)=O [PAZOPANIB] , please.
Data returned: > 8 µM

====

Test system: HTC-C3;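 further: inhibition of cell growth, read out with a cell viability assay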
ASSAY_INFO: cells
Format: functional, cell-based, Homo sapiens
EXPERIMENTAL_CONTEXT: Homo sapiens, HTC-C3
Description: SANGER: Inhibition of human HTC-C3 cell growth in a cell viability assay.
pIC50: −log10 of the molar value.
MEASURE_NAME: pIC50

Some solved cases for reference:
In [3]: df
Out[3]:
                                   molecule  measure_name  result
0  COc1ccc(C2=N[C@@H](c3ccc(Cl)cc3)[C@@H](c3ccc(Cl)cc3)N2C(=O)N2CCNC(=O)C2)c(OC(C)C)c1         pIC50  < 5.10
1  O=C(c1cc(Cc2n[nH]c(=O)c3ccccc23)ccc1F)N1CCN(C(=O)C2CC2)CC1         pIC50  < 5.30
2   O=C1N=C(NCc2cccs2)S/C1=C\c1ccc2ncccc2c1         pIC50  < 5.30
3  COc1cc(F)c(F)c(Nc2ccc(I)cc2F)c1NS(=O)(=O)C1(CC(O)CO)CC1 (configuration not stated)         pIC50    6.91
4  CN(c1ncccc1CNc1nc(Nc2ccc3c(c2)CC(=O)N3)ncc1C(F)(F)F)S(C)(=O)=O         pIC50  < 5.59

Data request: So what's the measured pIC50 for this one? "CCOc1nc(NC(=O)Cc2cc(OC)ccc2OC)cc(N)c1C#N"
Data returned: < 5.00

Data request: GET /values?readout=pIC50&item= "O=C(NOCC1CC1)c1ccc(F)c(F)c1Nc1ccc(I)cc1Cl"
Data returned: 6.33

====

System: EW-16;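 further: growth inhibition of human EW-16 cells, read out as cell viability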
ASSAY_INFO: cells
Type: functional, cell-based, Homo sapiens
EXPERIMENTAL_CONTEXT: Homo sapiens, EW-16
Description: SANGER: Inhibition of human EW-16 cell growth in a cell viability assay.
MEASURE_NAME: IC50

Data request: Form field: reported IC50 of Cc1cc(Nc2cc(N3CCN(C)CC3)nc(Sc3ccc(NC(=O)C4CC4)cc3)n2)n[nH]1 [TOZASERTIB]
Data returned: 238 nM

Data request: May I ask what IC50 has been recorded for COc1ccc(C2=N[C@@H](c3ccc(Cl)cc3)[C@@H](c3ccc(Cl)cc3)N2C(=O)N2CCNC(=O)C2)c(OC(C)C)c1 [NUTLIN-3] ?
Data returned: > 8000 nM

Data request: Which measured IC50 value corresponds to O=C(NOCC1CC1)c1ccc(F)c(F)c1Nc1ccc(I)cc1Cl [CI-1040] ?
Data returned: 8080 nM

Data request: Which IC50 value belongs to CCC1=C[C@@H]2CN(C1)Cc1c([nH]c3ccccc13)[C@@](C(=O)OC)(c1cc3c(cc1OC)N(C)[C@H]1[C@@](O)(C(=O)OC)[C@H](OC(C)=O)[C@]4(CC)C=CCN5CC[C@]31[C@@H]54)C2 [VINORELBINE] ?
Data returned: 4.35 nM
